- assayInfo: Hydrodynamic radius by dynamic light scattering (DLS)
- Assay type: physicochemical
- conditionDescription: 25° C.
Here, each record is paired with measured Rh (nm, DLS) data.
The reply should be a number in nm, with the unit left off.

Example cases with answers are listed next.
# molecule, unitString, Rh (nm, DLS)
data = [
    ("Conjugate #12: (SEQ ID NO:149, Hu aTNFα 3MUT aH_CYS)+hyaluronic acid conjugate, MP2H linker, valency 99 (conjugate, hyaluronic acid conjugate, MP2H linker; Hu_aTNFaMu_3MUT aH_CYS) VHH: QVQLVESGGGLVQPGGSLRLSCAASGGTFSSIIMAWFRQAPGKEREFVGAVSWSGGTTVYADSVKGRFTISRDNSKNTVYLQMNSLRPEDTAVYYCAARPYQKYNWASASYNVWGQGTLVTVSSAEAAAKEAAAKEAAAKAGC", "nm", 70.12),
    ("Conjugate #10: (SEQ ID NO:104, anti-TNFα 3MUT VHH (mouse)-aH)+HyA (850 kDa) conjugate, MP2H linker, valency 96.5 (conjugate, hyaluronic acid 850 kDa conjugate, MP2H linker; anti-TNFalpha 3MUT VHH (mouse)- aH) VHH: QVQLQESGGGLVQAGGSLRLSCAASGGTFSSIIMAWFRQAPGKEREFVGAVSWSGGTTVYADSVKGRFTISRDSARKSVYLQMNSLKPEDTAVYYCAARPYQKYNWASASYNVWGQGTQVTVSSAEAAAKEAAAKEAAAKAGC", "nm", 99.14),
    ("Conjugate #13: (SEQ ID NO:150, Hu aTNFα 5MUT aH_CYS)+hyaluronic acid conjugate, MP2H linker, valency 102 (conjugate, hyaluronic acid conjugate, MP2H linker; Hu_aTNFaMu_5MUT aH_CYS) VHH: QVQLVESGGGLVQPGGSLRLSCAASGGTFSSIIMAWFRQAPGKEREFVAAISWSGGTTVYADSVKGRFTISRDNSKNTVYLQMNSLRPEDTAVYYCAARPYQKYNWASASYNVWGQGTLVTVSSAEAAAKEAAAKEAAAKAGC", "nm", 71.64),
    ("Conjugate #6: (SEQ ID NO:104, anti-TNFα 3MUT VHH (mouse)-aH)+HyA (850 kDa) conjugate, MP2H linker, valency 51 (conjugate, hyaluronic acid 850 kDa conjugate via MP2H linker; anti-TNFalpha 3MUT VHH (mouse)- aH) VHH: QVQLQESGGGLVQAGGSLRLSCAASGGTFSSIIMAWFRQAPGKEREFVGAVSWSGGTTVYADSVKGRFTISRDSARKSVYLQMNSLKPEDTAVYYCAARPYQKYNWASASYNVWGQGTQVTVSSAEAAAKEAAAKEAAAKAGC", "nm", 76.8),
]

Now for another entry.
Need Rh (nm, DLS), item Conjugate #7: (SEQ ID NO:104, anti-TNFα 3MUT VHH (mouse)-aH)+HyA (850 kDa) conjugate, MP2H linker, valency 98 (conjugate, hyaluronic acid 850 kDa conjugate via MP2H linker; anti-TNFalpha 3MUT VHH (mouse)- aH) VHH: QVQLQESGGGLVQAGGSLRLSCAASGGTFSSIIMAWFRQAPGKEREFVGAVSWSGGTTVYADSVKGRFTISRDSARKSVYLQMNSLKPEDTAVYYCAARPYQKYNWASASYNVWGQGTQVTVSSAEAAAKEAAAKEAAAKAGC
76.42
